# Tested on: Caco-2 and clone 60 cells
# assay: Clonogenic assay (colony-forming efficiency), Caco-2 and clone 60 cells
# Format: cell-based, human
# condition.set: Homo sapiens, Caco-2; 24 h treatment, replated; colony formation; read-out: 50% decrease in cell number
quantity.measured: IC50

                                test_smiles  quantity_measured  recorded_value
0  CC1=C(CC(=O)O)c2cc(F)ccc2/C1=C\c1ccc(S(C)(=O)=O)cc1               IC50         ~800 µM
